- Test system: Capan-1 (pancreatic cancer cell line)
- protocol-details: In vitro cell proliferation inhibition test with isobologram analysis (Test Example 3), Capan-1
- Assay type: cell-based, human
- assay-conditions: Homo sapiens, CAPAN-1, Capan-1; combined with Lipo 0.41 nmol/L; read-out: IC50 value (nmol/L) of DNA damage repair inhibitor (Ceralasertib) at each of concentration points of Lipo
- Method: A Cell Counting Kit-8 (Dojindo Molecular Technologies. Inc.) was used for a living cell detection method, and the absorbance at 460 nm after 4 hours of reagent addition was measured with a microplate reader to obtain the IC50 value. [table] […] First, the IC50 value of Lipo alone and the IC50 value of various DNA damage repair inhibitors alone were determined. […]
endpoint: pIC50
Give bare numbers, as −log10 of the molar value.

Query: Give reported pIC50 value for C[C@@H]1COCCN1c1cc(C2([S@](C)(=N)=O)CC2)nc(-c2cc[nH]c3nccc2-3)n1 [Ceralasertib]
Result: 6.09

* * *

- Tested on: Capan-1 (pancreatic cancer cell line)
- protocol-details: In vitro cell proliferation inhibition test with isobologram analysis (Test Example 3), Capan-1
- Type: cell-based, human
- assay-conditions: Capan-1; DNA damage repair inhibitor combined with Lipo; 6 days culture
endpoint: effect of combined use with Lipo in isobologram analysis

Some compounds with recorded effect of combined use with Lipo in isobologram analysis:
COc1ccc([C@@H](O)c2cc(-c3ncnc4cc(N5CCOCC5)ccc34)c(F)cc2Cl)nn1 = synergistic effect
COc1cc2ncc3c(c2cc1-c1cn(C)nc1C)n(-c1c(F)cncc1OC)c(=O)n3C = additive effect
C=CCn1c(=O)c2cnc(Nc3ccc(N4CCN(C)CC4)cc3)nc2n1-c1ccc2c(n1)[C@@](O)(CC)CC2 = additive effect
C[C@@H]1COCCN1c1cc(C2([S@](C)(=N)=O)CC2)nc(-c2cc[nH]c3nccc2-3)n1 = synergistic effect

Here's the next entry for you.
Query: Specify measured effect of combined use with Lipo in isobologram analysis for "O=C(c1cc(Cc2n[nH]c(=O)c3ccccc23)ccc1F)N1CCN(C(=O)C2CC2)CC1" .
Result: synergistic effect
